I'd appreciate it if you could supply CC50 values for the items below.
assay: Anti-cancer activity, EBC-1; assay type: cell-based, human; settings: EBC-1, lung cancer; read-out: LC50 (the source's name)
Where no end group is shown, it is not given here.
Numbers only, in µM.

RNWRGIAGMARRLLGRNWRLM [mast21R]	70

// query Given KNWKGIAGMAKKLLGKNWKLM [mast21, reference compound] , state its recorded CC50.
// result 100

====

Please provide measured CC50 for the entries that follow.
Assay: Anti-cancer activity, NIH OVCAR-3
Format: cell-based, human
Details: NIH OVCAR-3, ovarian cancer; read-out: LC50 (the source's name)
Method: Anti-cancer activity was evaluated using a method complying with an anti-cancer agent screening method (1990) using a human cancer cell panel which has been carried out by U.S. National Cancer Institute (NCI). Cells employed in experiments were from the following three cell lines: HL60 cell (cell line derived from human leukemia); HeLa cell (cell line derived from human uterine cancer); and HCT116 cell (cell line derived from human large intestine cancer). […]
Where no end group is shown, it is not given here.
Units required after the number.

RNWRGIAGMARRLLGRNWRLM [mast21R]	80 µM

# context switch: different sequence, same CC50
// query Please look up its CC50: KNWKGIAGMAKKLLGKNWKLM [mast21, reference compound]
// result 100 µM

====

test: Anti-cancer activity, HL60 cell; assay type: cell-based, human; details: human, HL60 cells (leukemia cell line), sulforhodamine B
Where no end group is shown, it is not given here.
property.name: LC50 at 2 days

// query Need LC50 at 2 days of KVLKVLKVLKVLKVL [KVL5, KVLKVLKVLKVLKVL] , thanks.
// result > 100 µM

====

experiment: Anti-cancer activity, A172; assay type: cell-based, human; settings: human; A172, glioblastoma; read-out: LC50
Where no end group is shown, it is not given here.
Could you please report measured CC50 at 2 days for the items listed next?

Each sequence below has a recorded value; state its CC50 at 2 days.
1. ALRALRALRALRALRALR [ALR6, ALRALRALRALRALRALR]
2. KVLKVLKVLKVLKVLKVL [KVL6, KVLKVLKVLKVLKVLKVL]

// result
1: > 100 µM; 2: > 100 µM

====

Experiment: Anti-cancer activity, 5637 cell
Assay type: cell-based, human
Details: human, bladder cancer, read-out: LC50
Method: Anti-cancer activity was evaluated using a method complying with an anti-cancer agent screening method (1990) using a human cancer cell panel which has been carried out by U.S. National Cancer Institute (NCI). Cells employed in experiments were from the following three cell lines: HL60 cell (cell line derived from human leukemia); HeLa cell (cell line derived from human uterine cancer); and HCT116 cell (cell line derived from human large intestine cancer). […]
Where no end group is shown, it is not given here.
property.name: CC50 at 2 days (µM)
Give bare numbers, in µM.

// query Query (sequence): KVLKVLKVLKVLKVLKVL [KVL6, KVLKVLKVLKVLKVLKVL] ; field requested: CC50 at 2 days
// result 100

====

assay: Anti-cancer activity, KATO III cell; type: cell-based, human; details: stomach cancer, read-out: LC50 (the source's name)
Where no end group is shown, it is not given here.
property.name: CC50 (µM)
Answers are plain numbers, in µM.

// query I have this sequence here, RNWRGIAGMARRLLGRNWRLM [mast21R] , and I need its recorded CC50.
// result 50
